The origin of these recorded values is patent US20240083896A1.

target: human Nav1.8 (Homo sapiens (Human)); assay: QPatch 48 HTX electrophysiology assay, half inactivation state voltage protocol (V1/2), HEK293-Nav1.8 cells; type: cell-based; conditions: HEK293 cells expressing human Nav1.8, human Navβ1 and human TREK1; V1/2 protocol, P2 current; IC50 in molar; average where more than one run
Sequence (Q9Y5Y9 whole entry): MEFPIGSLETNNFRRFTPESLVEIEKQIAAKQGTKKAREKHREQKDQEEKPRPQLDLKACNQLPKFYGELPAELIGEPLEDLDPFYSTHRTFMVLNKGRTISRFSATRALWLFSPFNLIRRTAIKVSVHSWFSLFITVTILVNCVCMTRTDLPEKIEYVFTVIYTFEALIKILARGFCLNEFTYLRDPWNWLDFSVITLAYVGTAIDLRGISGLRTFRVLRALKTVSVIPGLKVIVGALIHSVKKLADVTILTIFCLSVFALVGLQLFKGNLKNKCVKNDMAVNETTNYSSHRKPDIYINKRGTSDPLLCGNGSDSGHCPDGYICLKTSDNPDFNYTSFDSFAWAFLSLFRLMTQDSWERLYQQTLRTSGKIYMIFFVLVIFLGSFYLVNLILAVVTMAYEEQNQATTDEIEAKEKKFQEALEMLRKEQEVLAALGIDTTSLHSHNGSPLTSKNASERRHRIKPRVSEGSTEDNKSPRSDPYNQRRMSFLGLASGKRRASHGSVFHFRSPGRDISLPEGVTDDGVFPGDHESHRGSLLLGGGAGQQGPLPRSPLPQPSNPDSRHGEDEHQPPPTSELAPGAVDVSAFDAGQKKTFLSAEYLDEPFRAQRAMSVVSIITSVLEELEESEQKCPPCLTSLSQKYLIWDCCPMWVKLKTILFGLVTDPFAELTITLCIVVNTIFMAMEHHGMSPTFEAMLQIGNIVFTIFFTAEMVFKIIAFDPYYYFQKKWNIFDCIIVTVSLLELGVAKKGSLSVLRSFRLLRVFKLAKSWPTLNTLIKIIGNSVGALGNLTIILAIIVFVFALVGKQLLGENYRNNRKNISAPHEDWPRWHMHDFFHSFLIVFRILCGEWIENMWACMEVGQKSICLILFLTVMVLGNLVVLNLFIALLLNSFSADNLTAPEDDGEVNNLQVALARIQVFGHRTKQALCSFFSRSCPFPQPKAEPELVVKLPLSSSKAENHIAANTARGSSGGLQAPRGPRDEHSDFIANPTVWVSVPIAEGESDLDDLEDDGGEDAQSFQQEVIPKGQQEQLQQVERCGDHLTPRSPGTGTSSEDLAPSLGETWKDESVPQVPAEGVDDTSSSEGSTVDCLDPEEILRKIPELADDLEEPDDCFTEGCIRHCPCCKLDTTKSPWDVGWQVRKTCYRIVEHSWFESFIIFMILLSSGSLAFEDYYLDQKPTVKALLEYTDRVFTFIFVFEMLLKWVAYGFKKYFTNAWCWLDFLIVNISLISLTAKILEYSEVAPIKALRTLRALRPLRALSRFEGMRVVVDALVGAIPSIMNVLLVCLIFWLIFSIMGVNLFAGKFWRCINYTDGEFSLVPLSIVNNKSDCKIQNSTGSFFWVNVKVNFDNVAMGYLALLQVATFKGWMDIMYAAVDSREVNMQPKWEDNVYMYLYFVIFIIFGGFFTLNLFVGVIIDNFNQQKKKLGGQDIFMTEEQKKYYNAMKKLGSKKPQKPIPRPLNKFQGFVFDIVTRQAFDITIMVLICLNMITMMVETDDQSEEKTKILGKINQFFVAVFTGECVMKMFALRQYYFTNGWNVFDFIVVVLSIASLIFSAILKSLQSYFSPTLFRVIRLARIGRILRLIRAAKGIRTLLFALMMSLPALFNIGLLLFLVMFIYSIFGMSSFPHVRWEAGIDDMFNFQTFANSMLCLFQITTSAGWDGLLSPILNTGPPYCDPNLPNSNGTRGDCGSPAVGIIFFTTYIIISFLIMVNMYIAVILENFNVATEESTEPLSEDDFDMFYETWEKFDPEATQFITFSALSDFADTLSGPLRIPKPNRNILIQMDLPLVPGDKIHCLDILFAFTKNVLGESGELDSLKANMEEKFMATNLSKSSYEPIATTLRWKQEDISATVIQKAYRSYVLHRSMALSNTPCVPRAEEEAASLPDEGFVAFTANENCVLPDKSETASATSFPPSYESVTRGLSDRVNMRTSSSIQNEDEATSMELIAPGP
Sequence (Q07699 19-218 partner): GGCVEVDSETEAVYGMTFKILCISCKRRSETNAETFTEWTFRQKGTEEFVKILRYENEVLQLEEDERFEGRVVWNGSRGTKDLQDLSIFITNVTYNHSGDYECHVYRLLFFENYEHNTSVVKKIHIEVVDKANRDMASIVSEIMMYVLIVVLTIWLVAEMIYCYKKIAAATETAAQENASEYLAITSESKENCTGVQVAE
property label: [Nav1.8] pIC50
Reply with the value as a number alone.

item smiles | [Nav1.8] pIC50
Cc1cc(F)ccc1N1CN(c2ccc(=O)[nH]c2C)C(=O)c2cc(Cl)ncc21 | 6.6
Cc1cc(F)ccc1N1CN(c2ccc(=O)[nH]c2C)C(=O)c2nc(C(F)(F)F)cnc21 | 5.1
Cc1c[n+]([O-])ccc1N1CN(c2ccc(OC(F)(F)F)cc2C)c2cnc(C(F)(F)F)cc2C1=O | 6.7

Note: attention shifts to another entry.
[in] Requested read-out [Nav1.8] pIC50, target or system human Nav1.8 (Homo sapiens (Human)), entry CCc1c(N2CN(c3ccc(=O)[nH]c3C)C(=O)c3cc(C(F)(F)F)ncc32)ccc(F)c1F
[out] 7.5
